Give z-score for every item shown.
protocol_description: P. aeruginosa biofilm formation inhibitors, primary screen, PAO1 strain, BacTiter-Glo luminescence, LB-PBS (AID 1144)
condition_notes: 12 h, higher = more signal
Calls of active or inactive are those of the source. No rule for the calls is given here.

Query block: Need z-score, item "CCCC=C(CCC)[C@@H](NS(=O)(=O)c1cccc2cccnc12)c1ccc(-c2ccccc2)cc1"
Result block: 0.923 (inactive)

Query block: Would you mind doing COc1cc(NN2C(C(O)C3CCCCC3)C=CC3C(=O)N(C)C(=O)C32)cc(OC)c1OC (centres undefined) as well?
Result block: 0.0648 (inactive)

Query block: Likewise for C=CC1c2cc(O)c(OC)cc2CCN1Cc1ccc([N+](=O)[O-])o1 (centres undefined) ?
Result block: 1.47 (inactive)

Query block: Also need CC(C)N1CC=CC23O[C@@H]4/C=C\CCCOC(=O)C4[C@H]2C(=O)N(CCCCCCO)[C@@H]3C1=O (some centres undefined) , thanks.
Result block: -0.0303 (inactive)

Query block: Same question for "O=C(NCCN1CCOCC1)[C@@H]1c2ccccc2C(=O)N(Cc2ccccc2)[C@H]1c1ccc(CO)cc1" please.
Result block: -0.996 (inactive)

Query block: Similarly, CN1C(=O)C2C=CC(C(O)c3ccc(I)cc3)N(Nc3ccccc3)C2C1=O (centres undefined) ?
Result block: -0.507 (inactive)

Query block: For "[N-]=[N+]=NCc1ccccc1[C@H]1OC(c2ccc(OCCCO)cc2)=N[C@@]1(CCS(=O)(=O)c1ccccc1)C(=O)NCc1ccccc1" then?
Result block: 0.318 (inactive)

Query block: Then CC(C)=CCCC(C)=CC(O)C1C=CC2C(=O)N(c3ccccc3)C(=O)C2N1Nc1ccccc1F (centres undefined) ?
Result block: -1.45 (inactive)

Query block: Input O=C1NC(=O)C2C1C=CC(C(O)c1ccccn1)N2Nc1ccc(Cl)cc1Cl (centres undefined)
Result block: -0.595 (inactive)
